Readings of protein stability index for the listed variants
B1: SPATS1 (parent)
chain: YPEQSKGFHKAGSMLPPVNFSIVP

Variants of: B1
Assay: protein stability index of a GFP-peptide fusion (GPS, HEK-293T) (PSI 1-6); higher = more stable;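 note: lentivirally expressed fusions sorted by FACS into six bins by GFP to DsRed ratio, PSI derived from sequencing read proportions per bin multiplied by bin number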
Settings: c terminus: a fixed tail appended

Here is how some variants turned out for protein stability index.
A11G 1.98
S13A 1.68
F8K 3.32
P16N 1.65

May I ask what protein stability index has been recorded for `F8Y` ?
1.97

Record request: protein stability index value, item `Q4S`
1.99
